The values you see were collected from patent US5114918A.

- measured-on: endothelin receptor (membrane of smooth muscle tissue of porcine aorta) (Sus scrofa, UniProt Q29010)
- Construct: from tissue; host or cells: smooth muscle tissue of porcine aorta (membrane fraction)
- Sequence (Q29010 21-427): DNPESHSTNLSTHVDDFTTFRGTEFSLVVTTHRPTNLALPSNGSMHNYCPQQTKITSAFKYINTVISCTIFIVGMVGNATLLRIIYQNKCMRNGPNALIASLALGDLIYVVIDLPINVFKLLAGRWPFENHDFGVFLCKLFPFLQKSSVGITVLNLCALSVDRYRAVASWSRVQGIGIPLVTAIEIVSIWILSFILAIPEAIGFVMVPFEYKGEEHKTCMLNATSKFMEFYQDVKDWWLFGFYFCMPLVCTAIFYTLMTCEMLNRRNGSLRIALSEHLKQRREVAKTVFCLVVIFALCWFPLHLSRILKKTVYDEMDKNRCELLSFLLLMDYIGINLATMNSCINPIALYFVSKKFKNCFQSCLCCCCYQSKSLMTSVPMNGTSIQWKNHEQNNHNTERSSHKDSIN
- method: Endothelin binding inhibition test (125I-endothelin-1, porcine aorta smooth muscle membrane)
- condition-notes: 1.1 μM of the test compound; porcine aorta smooth muscle membrane; 25° C, 4 hours; read-out: 125I-endothelin-1 binding inhibition, Inhibition (%)
Square brackets hold non-standard residues; d marks the D form. Peptide text beside a SMILES is read from it. * marks the point of attachment. dGly(2-thienyl) = N[C@@H](C(=O)O)c1cccs1; Gly(N-cPent) = O=C(O)CNC1CCCC1; dPen = CC(C)(S)[C@@H](N)C(=O)O; N(iPr)Gly = CC(C)NCC(=O)O; Nle = CCCC[C@H](N)C(=O)O; For = O=C*
observed-property: inhibition at 1.1 µM (%)
Kindly answer with a numeric value in %, unit omitted.

The cases that follow already have their inhibition at 1.1 µM on record.
{"columns": ["molecule", "inhibition at 1.1 µM [%]"],
 "data": [
  ["CCCC[C@@H]1NC(=O)[C@@H](C(C)C)NC(=O)[C@@H]2CCCN2C(=O)[C@@H](CC(=O)O)NC(=O)[C@@H](Cc2c[nH]c3ccccc23)NC1=O [Example 41, cyclo(-DTrp-DAsp-Pro-DVal-Nle-)] (cyclo([Nle][dW][dD]P[dV]))", 83],
  ["CC(C)C[C@@H]1NC(=O)[C@@H](c2cccs2)NC(=O)CN(C(C)C)C(=O)[C@@H](CC(=O)O)NC(=O)[C@@H](Cc2c[nH]c3ccccc23)NC1=O [Example 78, cyclo(-DTrp-DAsp-^i PrGly-DThg-Leu-)] (cyclo(L[dW][dD][N(iPr)Gly][dGly(2-thienyl)]))", 85],
  ["CC(C)C[C@@H]1NC(=O)[C@@H](C(C)C)NC(=O)[C@H](Cc2ccc(O)cc2)NC(=O)[C@@H](CC(=O)O)NC(=O)[C@@H](Cc2c[nH]c3ccccc23)NC1=O [Example 16, cyclo(-DTrp-DAsp-Tyr-DVal-Leu-)] (cyclo(L[dW][dD]Y[dV]))", 77],
  ["CC(C)C[C@@H]1NC(=O)[C@@H](C(C)(C)S)NC(=O)[C@@H]2CCCN2C(=O)[C@@H](CC(=O)O)NC(=O)[C@@H](Cc2c[nH]c3ccccc23)NC1=O [Example 60, cyclo(-DTrp-DAsp-Pro-DPen-Leu-)] (cyclo(L[dW][dD]P[dPen]))", 79]
]}

Please fill in: inhibition at 1.1 µM reported for CC(C)C[C@@H]1NC(=O)[C@@H](C(C)C)NC(=O)[C@@H]2CCCN2C(=O)[C@@H](CC(=O)O)NC(=O)[C@@H](Cc2cn(C=O)c3ccccc23)NC1=O [Example 51, cyclo(-DTrp(CHO)-DAsp-Pro-DVal-Leu-)] (cyclo(L[dW](For)[dD]P[dV])) = 84

The recorded inhibition at 1.1 µM for CSCC[C@@H]1NC(=O)[C@@H](CC(=O)O)NC(=O)[C@@H](Cc2cn(C=O)c3ccccc23)NC(=O)[C@H](CC(C)C)NC(=O)[C@@H](C(C)C)NC1=O [Example 55, cyclo(-DTrp(CHO)-DAsp-Met-DVal-Leu-)] (cyclo(L[dW](For)[dD]M[dV])) is 81

Item: CC(C)C[C@@H]1NC(=O)[C@@H](c2cccs2)NC(=O)CN(C2CCCC2)C(=O)[C@@H](CC(=O)O)NC(=O)[C@@H](Cc2c[nH]c3ccccc23)NC1=O [Example 73, cyclo(-DTrp-DAsp-CpGly-DThg-Leu-)] (cyclo(L[dW][dD][Gly(N-cPent)][dGly(2-thienyl)])) | inhibition at 1.1 µM: 85

For reference, reported inhibition at 1.1 µM for CC(C)C[C@@H]1NC(=O)[C@@H](C(C)C)NC(=O)[C@H](CCCCN)NC(=O)[C@@H](CC(=O)O)NC(=O)[C@@H](Cc2c[nH]c3ccccc23)NC1=O [Example 4, cyclo(-DTrp-DAsp-Lys-DVal-Leu-)] (cyclo(K[dV]L[dW][dD])) stands at 74
